System: human ether-à-go-go-related gene (hERG) potassium channel (human)
Sequence (Q12809 whole entry, looked up): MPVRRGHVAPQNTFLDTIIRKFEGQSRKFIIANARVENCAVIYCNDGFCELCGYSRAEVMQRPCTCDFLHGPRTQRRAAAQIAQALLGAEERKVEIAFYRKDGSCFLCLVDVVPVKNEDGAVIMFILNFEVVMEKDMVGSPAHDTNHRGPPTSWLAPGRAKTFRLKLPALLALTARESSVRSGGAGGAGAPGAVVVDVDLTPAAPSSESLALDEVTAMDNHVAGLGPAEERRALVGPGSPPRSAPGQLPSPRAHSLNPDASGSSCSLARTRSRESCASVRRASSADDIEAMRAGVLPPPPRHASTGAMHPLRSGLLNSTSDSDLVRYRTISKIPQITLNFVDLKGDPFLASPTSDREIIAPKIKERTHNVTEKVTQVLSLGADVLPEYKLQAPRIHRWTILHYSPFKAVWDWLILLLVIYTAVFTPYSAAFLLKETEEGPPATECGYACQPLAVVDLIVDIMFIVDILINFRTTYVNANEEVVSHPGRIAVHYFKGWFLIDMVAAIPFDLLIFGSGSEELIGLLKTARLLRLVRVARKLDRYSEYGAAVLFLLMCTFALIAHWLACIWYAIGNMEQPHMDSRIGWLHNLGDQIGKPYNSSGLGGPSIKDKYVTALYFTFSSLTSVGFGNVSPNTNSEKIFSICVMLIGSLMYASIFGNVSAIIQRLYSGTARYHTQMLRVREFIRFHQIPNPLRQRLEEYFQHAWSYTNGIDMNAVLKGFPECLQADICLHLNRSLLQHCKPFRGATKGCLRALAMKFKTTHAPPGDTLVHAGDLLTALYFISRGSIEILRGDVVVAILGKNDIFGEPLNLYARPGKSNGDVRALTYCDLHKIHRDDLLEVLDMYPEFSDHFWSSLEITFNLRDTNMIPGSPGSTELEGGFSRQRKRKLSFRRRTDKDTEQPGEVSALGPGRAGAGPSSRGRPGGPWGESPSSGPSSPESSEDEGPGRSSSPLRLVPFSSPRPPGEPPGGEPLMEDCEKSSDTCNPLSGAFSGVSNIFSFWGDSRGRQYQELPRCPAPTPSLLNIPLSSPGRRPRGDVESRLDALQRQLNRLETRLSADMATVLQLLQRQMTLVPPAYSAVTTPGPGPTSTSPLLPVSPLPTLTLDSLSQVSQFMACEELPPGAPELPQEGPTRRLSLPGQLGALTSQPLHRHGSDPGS
Assay name: primary screen, population patch clamp on CHO cells stably expressing hERG; higher = less effect of the substance
From the text: Briefly, Chinese hamster ovary (CHO) cells stably expressing the hERG channel were dislodged from tissue culture flasks and dispensed into PPC plates. […] Small molecule effects on hERG current density were quantified by […].
The whole screen tested about 310,000 compounds, of which about 2,200 (0.71%) showed an effect of 50% or more. The effect is printed as a negative number. What follows is part of a selection rich in strong results, with near analogues and random picks from the rest.
Observed property: hERG current change (%, negative = inhibition) at 1uM
The reply must contain the numeric value and, after it, the unit.

Take a look at these entries with their results.
| Compound | Result |
| --- | --- |
| O=C(Nc1ccccn1)c1cc2ccccc2o1 | 9.79% |
| CCC(=O)N(CC)c1nc(-c2cc(OC)ccc2OC)cs1 | 12.9% |
| COc1ccc(NC(=O)CSc2nnc(Cn3c(=O)sc4ccccc43)n2C)c(OC)c1 | -2.58% |
| CCC(=O)N(CCCN(C)C)c1nc(-c2cc(OC)ccc2OC)cs1.Cl | -8.76% |
| CSc1nc(NCc2ccccc2)c2c3c(sc2n1)CN(C)CC3 | -64.2% |
| CSc1nc(NCC(C)C)c2c3c(sc2n1)CN(C)CC3 | -9.92% |
| CCN(CC)CCCN(C(=O)c1ccc(OC)cc1)c1nc(-c2ccc(OC)cc2)cs1 | -15.5% |
| S=C(Nc1ccccc1Cl)N1CCC(c2ccccc2)C1 (stereo not shown) | -6.92% |

Requested field: hERG current change (%, negative = inhibition) at 1uM. Item: CCN(CC)CCCN(C(C)=O)c1nc(-c2cc(OC)ccc2OC)cs1.Cl
-51%

If you can, please state the reported hERG current change (%, negative = inhibition) at 1uM value of Cc1ncc(S(=O)(=O)c2ccccc2)c(-c2ccccc2Cl)n1 .
2.7%
